# Test system: human SMAD7 mRNA
# PROTOCOL_DETAILS: Antisense inhibition of human SMAD7 mRNA expression in Hep3B cells by 5-10-5 MOE gapmers, single concentration, electroporation, RT-PCR (Example 1, Study 1 and 2)
# Format: cell-based
# CONDITION_INFO: Study 2, electroporation with 15,000 nM antisense oligonucleotide, 5-10-5 MOE gapmers targeting SEQ ID NO: 1 and 2
# Procedure: Antisense oligonucleotides were designed to target human SMAD7 mRNA and were tested for their effects on SMAD7 mRNA expression in vitro. […] After a treatment period of approximately 24 hours, RNA was isolated from the cells and SMAD7 mRNA levels were measured by quantitative real-time PCR. […] SMAD7 mRNA levels were adjusted according to total RNA content, as measured by RIBOGREEN®. […]
Strand notation (5' to 3'): a small letter for the sugar, then the base; units joined by * are phosphorothioate-linked, units joined directly phosphodiester-linked; [ ] holds rarer units or linkages, { } end groups; capitals alone tell only the bases. e = 2'-O-(2-methoxyethyl) (MOE); [5mC] = 5-methylcytosine; d = 2'-deoxy (DNA)
MEASUREMENT_NAME: % Inhibition (%)
Dear colleague, please return just the value in %, with no unit written.

INSERT INTO assay_data (substance, system_name, data_value) VALUES
  ('771428 (eT*eG*eG*e[5mC]*eA*d[5mC]*d[5mC]*dT*d[5mC]*dG*d[5mC]*dA*d[5mC]*d[5mC]*dG*e[5mC]*e[5mC]*eT*eT*eG; antisense) [compound 771428]', 'human SMAD7 mRNA', 47),
  ('771407 (antisense eA*eG*eG*eA*eG*d[5mC]*dG*dA*dA*d[5mC]*dA*dT*dG*dA*d[5mC]*e[5mC]*eT*e[5mC]*e[5mC]*eG) [compound 771407]', 'human SMAD7 mRNA', 59),
  ('771452 (antisense eG*eG*eT*eA*eT*d[5mC]*dT*dG*dG*dA*dG*dT*dA*dA*dG*eG*eA*eG*eG*eG) [compound 771452]', 'human SMAD7 mRNA', 55);

[in] Which measured % Inhibition value corresponds to 771767 (antisense e[5mC]*e[5mC]*eT*eA*eA*dA*dG*dG*dT*dG*dG*dG*dT*d[5mC]*d[5mC]*eA*eT*eT*e[5mC]*e[5mC]) [compound 771767] ?
[out] 16

[in] Similarly, 771828 (antisense eG*e[5mC]*e[5mC]*e[5mC]*eT*dA*dG*dA*dA*d[5mC]*dT*dT*dG*dG*dG*e[5mC]*eA*eA*eG*eG) [compound 771828] ?
[out] 8

* * *

# PROTOCOL_DETAILS: Hematology assays after oral gavage in CD-1 mice (Example 7)
# Assay type: in vivo
# CONDITION_INFO: 500 mg/kg oral gavage once daily for 4 weeks
MEASUREMENT_NAME: Neutrophils (%)
The reply should be a number in %, with the unit left off.

Check out these entries, answers already filled in.
INSERT INTO results (substance, unit_annotation, data_value) VALUES
  ('829994 (GGAGGCAGGGCCGCGA; 3-10-3 cEt gapmer, further chemistry not given here) [compound 829994]', '%', 14.0),
  ('830037 (antisense CTATTGGCTGATCTGG; 3-10-3 cEt gapmer, further chemistry not given here) [compound 830037]', '%', 19.3),
  ('830121 (AGAATCAAGCCCTGGC; 3-10-3 cEt gapmer, further chemistry not given here) [compound 830121]', '%', 11.6),
  ('798781 (CGTAAGATTCACAGCA; 3-10-3 cEt gapmer, further chemistry not given here) [compound 798781]', '%', 18.0),
  ('830025 (antisense TTTGTAAATCGAAAGC; 3-10-3 cEt gapmer, further chemistry not given here) [compound 830025]', '%', 17.5);

Then there is this substance:
[in] Reported Neutrophils, substance 790615 (CCAATGAGAATGCTTC; 3-10-3 cEt gapmer, further chemistry not given here) [compound 790615] : ____
[out] 16.0
